# TARGET_SYSTEM: human opioid receptor κ (Homo sapiens, UniProt P41145)
# Construct: expressed in transfected cells
# Sequence (P41145 whole entry): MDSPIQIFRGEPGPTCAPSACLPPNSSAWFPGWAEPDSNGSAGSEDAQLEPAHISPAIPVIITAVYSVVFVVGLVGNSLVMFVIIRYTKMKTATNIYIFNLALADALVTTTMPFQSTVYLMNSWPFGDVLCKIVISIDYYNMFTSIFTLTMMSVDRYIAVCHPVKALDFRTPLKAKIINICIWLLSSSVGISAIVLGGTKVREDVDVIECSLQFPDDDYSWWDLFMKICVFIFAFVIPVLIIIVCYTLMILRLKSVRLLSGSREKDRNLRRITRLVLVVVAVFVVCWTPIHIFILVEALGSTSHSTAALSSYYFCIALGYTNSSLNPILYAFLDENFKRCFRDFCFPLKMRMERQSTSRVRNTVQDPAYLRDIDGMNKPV
# ASSAY_REMARKS: Ca2+ response monitored by FLIPR, κ-expressing cells
# Type: cell-based
# PROTOCOL_CONDITIONS: κ-expressing HEK293T cells, Gqαi3 cotransfected, Fluo-4 AM, FLIPR, mean±SE, n = 3; read-out: EC50 (intracellular Ca2+ mobilization)
# Protocol: The assay was performed as reported earlier. Potency is determined by EC50.
pEC50: −log10 of the molar value. No end group written: not given here.
QUANTITY: pEC50

substance="YGGYMNPA-NH2 [BmK-YA]" quantity=pEC50 result_value=4.52

----------
# TARGET_SYSTEM: human opioid receptor μ (Homo sapiens, UniProt P35372)
# Construct: expressed in transfected cells
# Sequence (P35372 whole entry): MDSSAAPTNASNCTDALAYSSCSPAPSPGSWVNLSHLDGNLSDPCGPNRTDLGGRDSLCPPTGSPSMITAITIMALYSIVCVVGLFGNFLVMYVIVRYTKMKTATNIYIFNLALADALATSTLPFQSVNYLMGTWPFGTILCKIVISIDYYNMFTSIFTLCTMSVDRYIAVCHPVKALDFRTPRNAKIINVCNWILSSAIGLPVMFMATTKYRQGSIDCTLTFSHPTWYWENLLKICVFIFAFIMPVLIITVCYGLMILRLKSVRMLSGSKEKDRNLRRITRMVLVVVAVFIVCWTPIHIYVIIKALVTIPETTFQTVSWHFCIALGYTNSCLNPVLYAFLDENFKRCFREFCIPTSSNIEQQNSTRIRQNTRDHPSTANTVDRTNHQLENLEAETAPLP
# ASSAY_REMARKS: Ca2+ response monitored by FLIPR, μ-expressing cells
# Assay type: cell-based
# PROTOCOL_CONDITIONS: μ-expressing HEK293T cells, Gqαi3 cotransfected, Fluo-4 AM, FLIPR, mean±SE, n = 3; read-out: EC50 (intracellular Ca2+ mobilization)
pEC50: −log10 of the molar value. No end group written: not given here.
QUANTITY: pEC50

substance="YGGYMNPA-NH2 [BmK-YA]" quantity=pEC50 result_value=4.77
